# protocol.text: A549 lung cancer cell viability effects, profiling panel, resazurin fluorescence, 24 h, PK04 Diversity Set (AID 1171); also: test concentration not given here
# experimental.context: higher = more signal, called active from +8 up or from −8 down
assay.readout: z-score
One number for each entry.

Please review the entries below; each comes with its answer.
CN(C)CCCCCCNC(=O)[C@H]1C[C@H]2C(=O)N[C@@H](CCCCN)C(=O)N2[C@H]1c1ccc(O)cc1
0.283
Cc1cc(C)c(C(O)C2C=CC3C(=O)N(c4ccccc4)C(=O)C3N2Nc2ccc(C#N)cc2)c(C)c1 (configuration not stated)
0.0763
O=C1C[C@@](C(=O)NC2CC2)(c2ccc([N+](=O)[O-])cc2)[C@@H](c2ccc(CO)cc2)N1CC12CC3CC(CC(C3)C1)C2
-1.45
CC(=O)NCCCC[C@@H]1NC(=O)[C@H]2C[C@@H](C(=O)NCCCCCC[N+](C)(C)C)[C@@H](c3cccc(OCCO)c3)N2C1=O
0.925
COCCOC(=O)N1C(=O)[C@@]2(c3cc(C#Cc4ccc(OC)cc4)ccc31)[C@H](C(=O)N1CCN(c3ncccn3)CC1)[C@H]1C(=O)O[C@H](c3ccccc3)[C@H](c3ccccc3)N1[C@@H]2c1ccc(O)cc1
1.31
C=C[C@@H](COC(C)=O)N(Cc1ccc([N+](=O)[O-])cc1)S(=O)(=O)c1ccc(Br)cc1
2.05

We now examine a further compound.
q: Look up z-score of `Cc1ccc(S[C@]2(C(=O)NCc3ccccc3)CC(=O)N(Cc3ccccc3Cl)[C@@H]2c2ccc(CO)cc2I)cc1` and report it.
a: 1.6
